subject.of.test: Dipeptidyl peptidase IV (Porphyromonas gingivalis, UniProt O31048)
Sequence (O31048 20-723 limits assumed): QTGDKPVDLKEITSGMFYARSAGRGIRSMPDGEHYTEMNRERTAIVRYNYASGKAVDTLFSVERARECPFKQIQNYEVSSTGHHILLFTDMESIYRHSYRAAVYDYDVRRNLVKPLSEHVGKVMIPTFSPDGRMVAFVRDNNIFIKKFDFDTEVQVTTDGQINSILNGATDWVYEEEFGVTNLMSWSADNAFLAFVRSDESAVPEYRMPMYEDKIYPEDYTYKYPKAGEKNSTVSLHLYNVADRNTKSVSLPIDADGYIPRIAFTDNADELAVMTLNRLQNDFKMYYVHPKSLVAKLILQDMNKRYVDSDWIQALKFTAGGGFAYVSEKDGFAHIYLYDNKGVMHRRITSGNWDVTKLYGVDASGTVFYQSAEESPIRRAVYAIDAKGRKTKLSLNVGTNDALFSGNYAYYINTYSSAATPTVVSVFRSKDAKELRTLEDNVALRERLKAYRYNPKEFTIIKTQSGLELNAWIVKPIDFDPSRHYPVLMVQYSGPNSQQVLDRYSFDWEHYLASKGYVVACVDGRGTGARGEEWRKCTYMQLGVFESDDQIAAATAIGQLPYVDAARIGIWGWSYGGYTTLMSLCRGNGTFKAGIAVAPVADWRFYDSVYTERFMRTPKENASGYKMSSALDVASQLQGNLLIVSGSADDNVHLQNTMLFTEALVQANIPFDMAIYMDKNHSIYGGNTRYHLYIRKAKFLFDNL
assay.explanation: Inhibition of Porphyromonas gingivalis N-terminal His-tagged DPP4 expressed in Escherichia coli using Gly-Pro-p-nitroanilide as substrate
details: read-out: IC50
parameter: IC50

Query string: Requested read-out IC50, target or system Dipeptidyl peptidase IV (Porphyromonas gingivalis, UniProt O31048), entry NC(CCCCNC(=O)OCc1ccccc1)C(=O)N1CCSC1 (stereo not given)
Result string: 22000 nM

Query string: Write down the reported IC50 of CC1CC(N=[N+]=[N-])CN1C(=O)C(N)CCC(=O)N1CCN(Cc2ccc(F)cc2)CC1 (stereo not given) , test system: Dipeptidyl peptidase IV (Porphyromonas gingivalis, UniProt O31048).
Result string: 2400 nM

Query string: Lab request: please report IC50 under test system Dipeptidyl peptidase IV (Porphyromonas gingivalis, UniProt O31048) for `N#C[C@@H]1C[C@H](N=[N+]=[N-])CN1C(=O)[C@@H](N)CCCCNC(=O)OCc1ccccc1`
Result string: 300 nM

Query string: Quick check: IC50 on Dipeptidyl peptidase IV (Porphyromonas gingivalis, UniProt O31048), item `N[C@@H](CCCCNC(=O)OCc1ccccc1)C(=O)N1CCCC1` ?
Result string: 22000 nM

Query string: Recorded IC50 for `N#C[C@@H]1C[C@H](N=[N+]=[N-])CN1C(=O)[C@@H](N)CCC(=O)NCCN` with Dipeptidyl peptidase IV (Porphyromonas gingivalis, UniProt O31048), please?
Result string: 800 nM

====

# Ratio IC50 per entry
assay.explanation: Selectivity index, ratio of IC50 for human DPP4 to IC50 for Porphyromonas gingivalis N-terminal His-tagged DPP4 expressed in Escherichia coli

Recorded results for 5 compounds are shown here.
* N#C[C@@H]1C[C@H](N=[N+]=[N-])CN1C(=O)[C@@H](N)CCCCNC(=O)OCc1ccccc1 | 1.76 to 1.8
* N#C[C@@H]1CCCN1C(=O)[C@@H](N)CCCCN | 0.16 to 0.2
* N#C[C@@H]1C[C@H](N=[N+]=[N-])CN1C(=O)[C@@H](N)CCC(=O)NCCN | 0.5
* CC#CCn1c(N2CCNCC2)nc2c1c(=O)n(Cc1nc(C)c3ccccc3n1)c(=O)n2C | < 0.002
* CC[C@@H](C)[C@H](N)C(=O)N1C[C@@H](N=[N+]=[N-])C[C@H]1C#N | 1.26 to 1.3

Shifting focus to the compound that follows.
Query string: What value of measured Ratio IC50 is listed for `N#C[C@@H]1C[C@H](N=[N+]=[N-])CN1C(=O)[C@@H](N)CCCCN` ?
Result string: 6.58 to 6.7

====

assay.explanation: Selectivity index, ratio of IC50 for human DPP4 to IC50 for Porphyromonas gingivalis N-terminal His-tagged DPP4 expressed in Escherichia coli
Entries and their measured Ratio IC50 follow.
Write the value as a bare number.

Guide cases for Ratio IC50, answers given:
* N#C[C@@H]1C[C@H](N=[N+]=[N-])CN1C(=O)[C@@H](N)CCC(=O)N1CCNCC1 | 1.2
* NC(CCCCN(Cc1ccccc1)Cc1ccccc1)C(=O)N1CCCC1 (configuration not stated) | 0.88

Query string: Need Ratio IC50 of `CC[C@H](C)[C@H](N)C(=O)N1C[C@@H](N=[N+]=[N-])C[C@H]1C#N` , thanks.
Result string: 1.1
